// melting point lookup, one value per entry

# melting point lookup, item CCOCCOCCn1ccc2c3c(c(-c4ccccc4Cl)cc21)C(=O)NC3=O
173 °C

Another: C=CCc1cc2c(cc1OCC=Cc1ccccc1)CCC(=O)N2CC=Cc1ccccc1
88 to 89 °C

Another: CN1C(C(=O)Nc2ccccn2)=C(OC(=O)C=Cc2ccccc2)c2ccccc2S1(=O)=O
156 to 158 °C

Another: COc1cc(OC)c(C(=O)C=CC(=O)O)cc1OC
207 to 208 °C

Another: O=C(O)C1CSC(c2cccnc2)N1 (stereo unspecified)
135 to 140 °C

Another: COc1cc(OC)cc(C(NCC(=O)Nc2c(C(C)C)cccc2C(C)C)c2ccccc2C)c1 (stereo unspecified)
138 to 139 °C

Continuing:
# melting point lookup, item CC(=O)Nc1cccc(Nc2ncc3ccc(-c4cccn4CCC#N)n3n2)c1
131 to 139 °C

Another: CC(C)N1C(=O)c2ccccc2N(C#N)S1(=O)=O
99 to 101 °C

Another: N[C@H](C1CCCCC1)C(O)(c1ccccc1)c1ccccc1
181 to 182 °C

Another: Cc1nsc2ccc([N+](=O)[O-])cc12
124 to 125 °C

Another: CC(C)(C)OC(=O)N1CCN(C(=O)CI)CC1
69 to 71 °C

Another: CN1CCN(CCOc2ccc([C@H]3c4ccc(OCc5ccccc5)cc4OC[C@H]3c3ccccc3)cc2)CC1 (racemic)
103 to 107 °C

Another: O=C1NC(=O)C(N(Cc2ccc(Br)cc2)c2ccc(CCNCC(O)COc3ccc(OCc4ccccc4)cc3)cc2)S1 (stereo unspecified)
50 to 52 °C

----------
// melting point lookup, one value per entry

Record excerpt, results attached:
# melting point lookup, item CCOC(=O)c1cc(C(C)=O)[nH]n1
114 to 115 °C

Another: O=C(Nc1ccncn1)NN1CC=CCC1
188 °C

Another: CN1CC(C(Oc2ccccc2N)c2ccccc2)OCC1=O (configuration not stated)
167 to 170 °C

Another: CCOCCNCCOc1ccc(NC(=O)c2ccccc2NS(C)(=O)=O)cc1
171 to 172 °C

Another: Cc1nc2c(s1)C(=O)C(=CN1CCOCC1)CC2
186 to 187 °C

Continuing:
# melting point lookup, item O=C1C(=O)N(c2cccc(C(F)(F)F)c2)C(=O)N1c1ccccc1
116 °C

----------
// melting point lookup, one value per entry

Record excerpt, results attached:
# melting point lookup, item CCc1c(C#N)oc2ccc(Br)cc12
68 to 69 °C

Another: CCOC(=O)Cn1c(-c2ccc(OC)c(OC)c2)cc(=Nc2c(C)cc(C)cc2C)n(C)c1=O
112 to 113 °C

Another: O=[N+]([O-])c1cnccc1NCc1ccccc1
100 to 104 °C

Another: O=C(NCl)c1c(C(F)(F)F)cc(Cl)nc1Cl
136 to 138 °C

Another: O=C(CCBr)N1CC(c2ccccc2)c2ccccc21 (configuration not stated)
98 to 99 °C

Continuing:
# melting point lookup, item O=C(N[C@@H](Cc1ccc(OCc2ccccc2)cc1)C(=O)O)c1cn2cc(/C=C/c3ccc(Cl)cc3)ccc2n1
267 to 270 °C

Another: CON=Cc1cc(NC(=O)N2CCOCN2)c(Cl)cc1Cl
205 to 208 °C

Another: CC1Cc2ccc([N+](=O)[O-])cc2C=N1 (configuration not stated)
110 to 112 °C

Another: COc1cc(F)ccc1-c1ccnc(NC(=O)[C@H]2CC[C@@H](NC(C)=O)C2)c1
125 to 129 °C

Another: COc1ccc(Cl)cc1C(CCO)c1ccccc1 (configuration not stated)
80 °C

Another: Cc1oc(-c2ccccc2)nc1C(C)O (configuration not stated)
101 to 102 °C

Another: COc1ccc(-c2coc(C(N)=O)cc2=O)cc1
262 to 263 °C

Another: CC(C)(C)C(=O)C(=CC1CCCCC1)n1cncn1
98 °C

----------
// melting point lookup, one value per entry

# melting point lookup, item C=CCOc1ccc(COc2ccc(CC(=O)O)cc2Cl)cc1Cl
132 to 134 °C

Another: CCCCCCCNc1ccncc1
50 to 52 °C

Another: CCOC(=O)c1cc2ccc(C)cc2o1
35 to 42 °C

Continuing:
# melting point lookup, item CC1(CCN2C(=O)c3cccc([N+](=O)[O-])c3C2O)OCCO1 (stereo not given)
130 °C

Another: C=CC(=O)NCCOc1ccc2c(c1)nc(N)c1nc(CCC)sc12
200 to 202 °C

Another: CC1C(=O)CCS1(=O)=O (stereo not given)
83 to 85 °C

Another: Cc1nc(C(N)=O)c([N+](=O)[O-])n1-c1ccc(Cl)c(Cl)c1
> 204 °C

Another: CC(=O)n1ccc(-c2ccc(F)cc2)c1-c1ccc(S(C)(=O)=O)cc1
211 to 214 °C

Another: COc1ccc(C=CC(=O)c2c(OC)cc(OC)cc2OC2OC(COC(C)=O)C(OC(C)=O)C(OC(C)=O)C2NC(C)=O)cc1 (stereo not given)
108 to 110 °C

Another: O=c1[nH]c2c(Cl)cccc2c(=O)n1CCCN1CC2CCC(C1)N2c1ccc(Cl)cc1
167 to 169 °C

----------
// melting point lookup, one value per entry

Record excerpt, results attached:
# melting point lookup, item CC(C)NC(=NC(=O)OCc1ccccc1)N=C1NC(=O)C(=O)N1c1ccc(Cl)c(Cl)c1
211 °C

Another: CN(c1cccc2cc(C3=NCC(CC(N)=O)S3)[nH]c12)S(=O)(=O)c1cccnc1 (centres undefined)
185 to 186 °C

Another: Cc1nc(C(=O)N(C)C)c2n1-c1ccc(Cl)cc1C(c1ccccc1F)=NC2
158 to 160 °C

Continuing:
# melting point lookup, item Fc1cccc2c(Nc3ccncc3)noc12
234 to 236 °C

Another: COc1ccc(-c2ccc3cc(C(=O)O)ccc3c2)cc1C12CC3CC(C)(CC(C)(C3)C1)C2
258 to 263 °C

----------
// melting point lookup, one value per entry

Record excerpt, results attached:
# melting point lookup, item CCc1c(C(=O)OC)c(C(F)(F)F)nc(C(F)(F)F)c1C(=O)OC
45 to 47 °C

Another: O=C(C1=C(c2ccc(O)cc2)CCc2ccccc21)c1ccc(OCCN2CCCCC2)cc1
83 to 85 °C

Another: CC(=O)Oc1ccc(CCl)cc1C(OC(C)=O)OC(C)=O
93 to 95 °C

Continuing:
# melting point lookup, item O=C(O)CCC(O)c1ccc(-c2ccccc2)cc1 (stereo not given)
139 to 140 °C

Another: C[C@@H](NC(=O)c1c[nH]c2ncc(-c3nccc4ccccc34)nc12)C(=O)N1CC(C#N)C1
180 to 185 °C

Another: Cn1ccc2ncnc(Oc3ccc(NC(=O)Nc4cccc(C(F)(F)F)c4)c(Cl)c3)c21
192 to 194 °C

Another: CC(=O)NC(C)(C)c1ccc(CN2CCN(c3ccccc3)CC2)cc1
110 to 111 °C

Another: CCC(OC(=O)C1CC1)c1ccc(Cl)c2nc3n(c12)CCCN3c1ccc(Cl)cc1Cl (stereo not given)
159 to 161 °C

Another: O=C(NCCCl)Nc1ccncc1
120 to 122 °C

Another: COC(=O)Cn1c(C(=O)Nc2nc(-c3cc(OC)c(Cl)cc3OC)c(CCC3CCCCC3)s2)cc2cc(C)cc(C)c21
193 to 195 °C

Another: CC(=O)Nc1nc(Cl)c(NC=O)c(N[C@@H]2C=C[C@H](CO)C2)n1 (relative stereo)
194 to 195 °C

----------
// melting point lookup, one value per entry

Record excerpt, results attached:
# melting point lookup, item NC(=O)Cc1nnc(S)o1
160 to 163 °C

Another: CCCC(C(=O)N(CC)CC)n1cc(C)c(-c2ccccc2)n1 (stereo unspecified)
65 to 67 °C

Continuing:
# melting point lookup, item Cc1nn(-c2cc3nc(S)sc3cc2F)c(=O)n1C
299 to 301 °C

Another: O=c1c2ccccc2[nH]n1Cc1cccc2ccccc12
198 to 200 °C

Another: COc1ccccc1-n1c(=O)[nH]c2c(C(N)=O)nc(-c3ccc4nc[nH]c4c3)nc21
306 °C

Another: O=C(Nc1ccc(Cl)c2c(-n3ccnc3)ccnc12)c1c(Cl)cccc1Cl
259 to 263 °C

Another: ClCCCSc1nnnn1-c1ccccc1
33 to 34 °C

Another: O=C(O)C(=NO)C(c1ccc(OCc2ccccn2)cc1)c1ccc(OCc2ccccn2)cc1
154 °C

Another: CCC(=O)Nc1ccc(-c2ccnc3c(C(=O)c4ccccc4)cnn23)cc1
211 to 213 °C

Another: Fc1ccccc1-c1cc2ccccc2[nH]1
97 to 98 °C

Another: CC(=O)On1cc(-c2ccccc2)c(=O)c(-c2ccccc2)c1
197 to 199 °C

Another: Cc1ccc(C(=O)NC(NC(=S)Nc2cccc(F)c2)C(F)(F)F)cc1 (stereo unspecified)
205 to 206 °C

Another: O=C1Nc2ccccc2N(C(=O)N2CCOC(CCN3CCCCC3)C2)c2ncccc21 (stereo unspecified)
136 to 138 °C

Another: NC1=C2C=NN=C2N(c2ccc(Cl)c(Cl)c2)CN1c1ccccc1
306 to 307 °C

Another: CCOC(=O)C1=C(C)N(C)C(C)=C(C(=O)OCC)C1c1ccccc1/C=C/C(=O)OC(C)(C)C
149 to 151 °C

Another: COc1cc(Nc2c(C#N)cnc3cc(-c4ccc(CCl)cc4)ccc23)c(Cl)cc1Cl
236 to 239 °C

Another: NS(=O)(=O)c1ccc(-n2nc(C(=O)O)cc2-c2ccc(Cl)cc2)cc1
126 to 128 °C

Another: C=CCONC(=O)c1c([Si](C)(C)C)ccc(Cl)c1Cl
92 to 94 °C
